These entries and their values trace back to the supplement of paper PMC9170038.

tested on: MS2 coat protein; assay: apparent KD of MS2 coat protein; higher = weaker reporter binding; conditions: Eterna round: R107; input ligand: none
READOUT LABEL: apparent KD of MS2 coat protein (nM)
Entry rule: numbers only, all in nM.

Study these solved cases before continuing.
[[record]]
sequence_text = "ACAUGAGGAUCACCCAUGUAUGACUAUCCUCGAGGACCGGUACGGCCGCCACUCGAACGAGUGGCUCGCGAGUGCGCACUCGCGG [5'end-1]"
endpoint_result = 11.4

[[record]]
sequence_text = "GACUAUAUGAUAUGUCAGAAAUCCUCGAAACGAGGACCGGUACGGCCGCCACUCGAGUGAUCAACAUGAGGAUCACCCAUGUAAA [Tryp A Ex t1]"
endpoint_result = 36.2

[[record]]
sequence_text = "AUGCAUAGCGGAAGGAGCGCAAUAGAAUGACAUGAGGAUCACCCAUGUAUGUGAUGUGGGUUGCAGGUAGGUCGCCGAGUGGUAU [Exclusion - Arginine B (Freestyle 1)]"
endpoint_result = 60.5

[[record]]
sequence_text = "CUUGAUAACUGAAGGAGCGAGAAACCCUACAUGAGGAUCACCCAUGUAUACACGGGAACUUCUCAGGUAGGUCGCAGUAUGUCAA [Teveor]"
endpoint_result = 54.4

[[record]]
sequence_text = "UCGCUCGCCGUAAGGCGAGCGAGUUGCGAUACCAGCCCGGAAACGGGCCCUUGGCAGCGCACAUGAGGAUCACCCAUGUCAUGUU [#1 Exclusion - Theophylline A Attempt #5 (HarryS)]"
endpoint_result = 19.5


// lookup apparent KD of MS2 coat protein for GUGGAGACCUCGGCCGCCACUCUCCAUGAGGAUCUCCCAUGUAACAUGAGGAUCACCCAUGUGCUGAGGACCGGGAGGUCCUGAA [Same State Tryptophan B GF 19]
9.47
